Assay: in vivo
Details: dog, po, 6 mg/kg, t1/2, dogs, Fed, paclitaxel 6 mg/kg with Compound A 3 mg/kg, single oral dose

molecule	measurement.unit	half-life
CC(=O)O[C@H]1C(=O)[C@@]2(C)[C@H]([C@H](OC(=O)c3ccccc3)[C@]3(O)C[C@H](OC(=O)[C@H](O)[C@@H](NC(=O)c4ccccc4)c4ccccc4)C(C)=C1C3(C)C)[C@]1(OC(C)=O)CO[C@@H]1C[C@@H]2O [Paclitaxel]	h	9.9

* * *

Test: clinical
Conditions: human, in vivo, po, 180 mg/m2

smiles.repr	Cmax, ng/mL
CC(=O)O[C@H]1C(=O)[C@@]2(C)[C@H]([C@H](OC(=O)c3ccccc3)[C@]3(O)C[C@H](OC(=O)[C@H](O)[C@@H](NC(=O)c4ccccc4)c4ccccc4)C(C)=C1C3(C)C)[C@]1(OC(C)=O)CO[C@@H]1C[C@@H]2O	432

All figures here come from patent US20180207148A1.
